system: FXR:RXRa (NR concentration 270 nM, RXRa partner concentration 90 nM); assay: PBM binding z-score (relative to random genomic background probes); higher = stronger binding; sequences stand for … in GC…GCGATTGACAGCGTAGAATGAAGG
MEASURED_PROPERTY: PBM binding z-score
Give the figure only, with no unit attached.

Q: For ATATGCAGGTTAAGGGTCATTCAGGTTGGTTCGC , write its PBM binding z-score.
A: 5.08

Q: For TTACCAAGGTGAAAAGTCGTTGATGCACGCCTTG , write its PBM binding z-score.
A: 0.666

Q: For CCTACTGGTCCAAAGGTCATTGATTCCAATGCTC , write its PBM binding z-score.
A: 4.78

Q: For ATCCAAAGGTCGACGAGGTGAGTATACACCGTTT , write its PBM binding z-score.
A: 5.35
